Molecular target: Cholinesterase (Equus caballus)
Sequence (P81908 whole entry): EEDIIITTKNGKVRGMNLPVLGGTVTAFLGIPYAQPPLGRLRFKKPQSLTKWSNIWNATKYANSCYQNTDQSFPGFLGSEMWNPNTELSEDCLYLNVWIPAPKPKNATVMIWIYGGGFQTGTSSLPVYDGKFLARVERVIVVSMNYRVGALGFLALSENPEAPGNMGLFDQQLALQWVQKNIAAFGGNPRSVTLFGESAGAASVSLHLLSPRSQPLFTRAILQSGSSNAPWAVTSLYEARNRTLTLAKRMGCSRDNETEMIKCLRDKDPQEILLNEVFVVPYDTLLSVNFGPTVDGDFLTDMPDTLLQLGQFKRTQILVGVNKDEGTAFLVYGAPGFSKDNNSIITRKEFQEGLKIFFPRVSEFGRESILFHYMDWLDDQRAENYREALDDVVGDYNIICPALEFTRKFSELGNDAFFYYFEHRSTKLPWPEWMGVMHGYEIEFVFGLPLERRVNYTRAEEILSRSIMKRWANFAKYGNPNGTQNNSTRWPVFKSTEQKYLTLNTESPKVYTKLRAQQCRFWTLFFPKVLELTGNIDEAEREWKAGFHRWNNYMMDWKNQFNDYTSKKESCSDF
Assay: Mixed inhibition of equine serum BChE using butyrylthiolcholine iodide as substrate by Lineweaver-Burk plot analysis
measurement_label: Ki (nM)
All answers are understood in nM, so give the number only.

Data request: Can you look up Ki on Cholinesterase (Equus caballus) for O=S1(=O)CCc2c(CN(CCO)Cc3ccc(Br)cc3)nn(-c3ccccc3F)c2O1 ?
Data returned: 24

---

Target: Cholinesterase (Equus caballus)
Assay: Inhibition of equine serum BuChE using butyrylthiocholine iodide as substrate preincubated with enzyme for 20 mins followed by addition of substrate and measured after 20 mins by DTNB reagent based Ellman's method
measurement_label: IC50 (nM)
All answers are understood in nM, so give the number only.

In the examples that follow, each entry is paired with its recorded IC50.
Data request: For O=S1(=O)CCc2c(-c3ccc(Cl)cc3)nn(-c3ccccc3Cl)c2O1 , what is its reported IC50?
Data returned: 1580

Data request: For CCN(Cc1ccccc1)Cc1nn(-c2ccccc2F)c2c1CCS(=O)(=O)O2 , what is its reported IC50?
Data returned: 80

Data request: For COc1ccc(CN(CCO)Cc2nn(-c3ccccc3F)c3c2CCS(=O)(=O)O3)cc1 , what is its reported IC50?
Data returned: 260

Data request: For COCCN(Cc1ccc(F)cc1)Cc1nn(-c2ccccc2F)c2c1CCS(=O)(=O)O2 , what is its reported IC50?
Data returned: 110

Data request: For CN1CCN(Cc2nn(-c3ccccc3F)c3c2CCS(=O)(=O)O3)CC1 , what is its reported IC50?
Data returned: 2170

Data request: For O=S1(=O)CCc2c(-c3ccc(Br)cc3)nn(-c3ccccc3F)c2O1 , what is its reported IC50?
Data returned: 470

More entries:
Data request: For O=S1(=O)CCc2c(C3CC3)nn(-c3ccccc3F)c2O1 , what is its reported IC50?
Data returned: 140

Data request: For COCCN(Cc1ccc(Br)cc1)Cc1nn(-c2ccccc2F)c2c1CCS(=O)(=O)O2 , what is its reported IC50?
Data returned: 150
